Source listed as patent US20240350493A1.

assay remarks: phase I two-part drug-drug interaction study, plasma pharmacokinetics (Example 1)
Type: in vivo, human
details: male, human, plasma, oral, 200 mg belumosudil single dose + itraconazole; read-out: AUCinf, geometric mean (geometric CV %)
recorded endpoint: AUC(0-inf) (ng·h/mL)
Answer with a number only, understood to be in ng·h/mL.

For reference, reported AUC(0-inf) for CC(C)NC(=O)COc1cccc(-c2nc(Nc3ccc4[nH]ncc4c3)c3ccccc3n2)c1 [Belumosudil] stands at 11200

* * *

assay remarks: phase I two-part drug-drug interaction study, plasma pharmacokinetics (Example 1)
Assay type: in vivo, human
details: male, human, plasma, oral, 200 mg, 200 mg belumosudil BID alone, second dose; read-out: Tmax, median (range)
Protocol: The secondary objective was to provide additional information on the safety and tolerability of this dose regimen in healthy males. This was a single center, non-randomized, DDI study in 35 (Part 1) and 38 (Part 2) healthy males. […] For each comparison, PK parameters were natural log transformed and analyzed using mixed effect modeling with treatment included as a fixed effect and subject as a random effect. Adjusted geometric mean ratios (GMRs) and corresponding 90% CIs were calculated.
recorded endpoint: Tmax
Record the result as number plus unit.

For reference, reported Tmax for CC(C)NC(=O)COc1cccc(-c2nc(Nc3ccc4[nH]ncc4c3)c3ccccc3n2)c1 [Belumosudil] stands at 15 h
